The reader will find reported Trep Concentration (μM) 60 min values listed item by item below.
procedure summary: Stability in cryopreserved hepatocytes, dog

compound	Trep Concentration (μM) 60 min (µM)
CCCCCC(CCC1C(O)CC2Cc3c(cccc3OCC(=O)O)CC21)OCC(=O)O (centres unmarked)	0
CCCCCC(CCC1C(OC(=O)CC)CC2Cc3c(cccc3OCC(=O)O)CC21)OC(=O)CC (centres unmarked) [Prodrug LXX, treprostinil dipropionate]	0.511
CCCCCC(CCC1C(O)CC2Cc3c(cccc3OCC(=O)O)CC21)OC(=O)CCC(=O)N1CCOCC1 (centres unmarked)	0.0584
CCCCCC(CCC1C(O)CC2Cc3c(cccc3OCC(=O)O)CC21)Oc1ccccc1C(=O)O (centres unmarked)	0.003
CCCCCC(CCC1C(O)CC2Cc3c(cccc3OCC(=O)O)CC21)OC(=O)CC (centres unmarked)	0.599
CCCCCC(CCC1C(O)CC2Cc3c(cccc3OCC(=O)O)CC21)OC(=O)c1ccc(C(F)(F)F)cc1 (centres unmarked)	0.128
CCCCCC(CCC1C(O)CC2Cc3c(cccc3OCC(=O)O)CC21)OC(=O)C(C)(C)C (centres unmarked)	0.19
CCCCCC(CCC1C(O)CC2Cc3c(cccc3OCC(=O)O)CC21)OC(=O)NC (centres unmarked)	0

###

procedure summary: Stability in liver microsomes, rat
The reader will find reported Trep Concentration 0 min values listed item by item below.

compound	Trep Concentration 0 min [µM]
CCCCCC(CCC1C(O)CC2Cc3c(cccc3OCC(=O)O)CC21)OC(C)=O (centres unmarked)	0.035
CCCCCC(CCC1C(O)CC2Cc3c(cccc3OCC(=O)O)CC21)OCOC(=O)C(C)(C)C (centres unmarked)	0.937
CCCCCC(CCC1C(OC(=O)CC)CC2Cc3c(cccc3OCC(=O)O)CC21)OC(=O)CC (centres unmarked) [Prodrug LXX, treprostinil dipropionate]	0.336
CCCCCC(CCC1C(O)CC2Cc3c(cccc3OCC(=O)O)CC21)OC(=O)CO (centres unmarked)	0.0772
CCCCCC(CCC1C(O)CC2Cc3c(cccc3OCC(=O)O)CC21)OCCC (centres unmarked)	0
CCCCCC(CCC1C(O)CC2Cc3c(cccc3OCC(=O)O)CC21)OC(=O)CCC(=O)N1CCOCC1 (centres unmarked)	0.0107
CCCCCC(CCC1C(O)CC2Cc3c(cccc3OCC(=O)O)CC21)OC(=O)CN (centres unmarked)	0.011
CCCCCC(CCC1C(O)CC2Cc3c(cccc3OCC(=O)O)CC21)OC(=O)C(C)(C)C (centres unmarked)	0

###

procedure summary: Stability in cryopreserved hepatocytes, rat
Experimental: Mixed-gender human cryopreserved hepatocytes, male Sprague-Dawley rat cryopreserved hepatocytes, and male Beagle dog cryopreserved hepatocytes were purchased from XenoTech. […] An aliquot of the supernatant was then diluted with water and analyzed by LC-MS/MS against calibration standards prepared in a matched matrix. […] All test article samples were analyzed for the dosed prodrugs as well as the drug, treprostinil. […]
The reader will find reported Treprostinil Concentration 120 min values listed item by item below.

compound	Treprostinil Concentration 120 min
CCCCCC(CCC1C(O)CC2Cc3c(cccc3OCC(=O)O)CC21)OP(=O)(O)O (stereo not shown) [Prodrug VI]	0.53 µM
CCCCCC(CCC1C(OC(=O)CC)CC2Cc3c(cccc3OCC(=O)O)CC21)OC(=O)CC (stereo not shown) [Prodrug LXX, treprostinil dipropionate]	0.405 µM
CCCCCC(CCC1C(O)CC2Cc3c(cccc3OCC(=O)O)CC21)OC(=O)CC (stereo not shown) [Prodrug LV]	0.391 µM
CCCCCC(CCC1C(O)CC2Cc3c(cccc3OCC(=O)O)CC21)OC(C)=O (stereo not shown) [Prodrug XLIII]	0.503 µM
